systemUnderTest: UniProt C7C422
Sequence (C7C422 whole entry, looked up, species assumed): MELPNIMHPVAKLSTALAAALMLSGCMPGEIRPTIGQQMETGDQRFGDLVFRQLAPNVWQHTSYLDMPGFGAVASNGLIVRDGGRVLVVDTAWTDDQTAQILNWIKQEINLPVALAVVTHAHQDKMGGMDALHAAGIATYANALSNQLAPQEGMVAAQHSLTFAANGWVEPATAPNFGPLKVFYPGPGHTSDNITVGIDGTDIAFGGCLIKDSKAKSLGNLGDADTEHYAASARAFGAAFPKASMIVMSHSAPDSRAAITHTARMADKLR
protocolSummary: biochemical
Assay type: biochemical
conditionDetails: NDM-1 enzyme, CCF2-FA substrate; read-out: NDM-1 IC50

compound	unitOfMeasurement	IC50
Nc1nc2cc(-c3ccc(C(F)(F)F)c(S(N)(=O)=O)c3-c3nnn[nH]3)ccc2s1	nM	0.753
NS(=O)(=O)c1c(C(F)(F)F)ccc(-c2cccc3c2ccc[n+]3[O-])c1-c1nn[nH]n1	nM	1.15
Nc1ncc(-c2ccc(-c3cccc4sc(N)nc34)c(-c3nn[nH]n3)c2S(N)(=O)=O)s1	nM	2.71
NS(=O)(=O)c1c(C[C@H]2CC[C@H](N)CC2)ccc(-c2ccc(C3CCNC3)cc2)c1-c1nn[nH]n1 (stereo partly shown)	nM	3.99
